Source: PubChem BioAssay (NCATS)

System: OV90
TEST_DETAILS: Primary qHTS to identify gynecologic anti-cancer compounds using libraries of approved drugs and bioactive compounds (AID 1345084); note: nearly all actives have a fitted effect of over 55% in size
CONDITION_LABEL: Gynecologic cancer cell panel viability, ATPlite luminescence, 48 h; series mostly up to 57.5 µM
Inconclusive results are not listed. Activity calls are given as the source filed them. Calls come from the whole dose curve; as a rule, active = well fitted cell-killing curve with a large enough effect; inconclusive = small, poorly fitted or top-dose-only effect, or effect the other way; inactive = flat fitted curve, though single readings scatter.
Outcome codes: 1 (active), 0 (inactive)

{"columns": ["COMPOUND", "CLASS_ASSIGNMENT"],
 "data": [
  ["c1nc2nc(Nc3ccc(N4CCOCC4)cc3)nc(NC3CCCCC3)c2[nH]1", 0],
  ["CC1(C)CC(=O)c2c(C(F)(F)F)nn(-c3ccc(C(N)=O)c(NC4CCC(OC(=O)CN)CC4)c3)c2C1 (stereo not given)", 1],
  ["Cc1c(Cn2c(C)nc3c(C(=O)O)cc(N4CCOCC4)cc32)cccc1C(F)(F)F", 0],
  ["NC(=O)c1c(OCc2c(F)cc(Br)cc2F)nsc1NC(=O)NCCCCN1CCCC1", 0],
  ["Cn1c2ccccc2c2c3c(c4c5ccccc5n(CCC#N)c4c21)CNC3=O", 0],
  ["Nc1cc(C(F)(F)F)c(-c2cc(N3CCOCC3)nc(N3CCOCC3)n2)cn1", 1],
  ["COC(=O)Nc1ccc(-c2nc(N3CCOCC3)c3cnn(C4CCN(Cc5cccnc5)CC4)c3n2)cc1", 1],
  ["O=C(c1ccc(Nc2nccc(-c3cc4ccccc4s3)n2)cc1)N1CCC(N2CCCC2)CC1", 0],
  ["N#Cc1c(O)c2c(-c3ccc(-c4ccccc4O)cc3)csc2[nH]c1=O", 0],
  ["CCCCCCCCCC(=O)N[C@@H](Cc1c[nH]c2ccccc12)C(=O)N[C@H](CC(N)=O)C(=O)N[C@@H](CC(=O)O)C(=O)N[C@@H]1C(=O)NCC(=O)N[C@@H](CCCN)C(=O)N[C@@H](CC(=O)O)C(=O)N[C@H](C)C(=O)N[C@@H](CC(=O)O)C(=O)NCC(=O)N[C@H](CO)C(=O)N[C@@H]([C@@H](C)CC(=O)O)C(=O)N[C@@H](CC(=O)c2ccccc2N)C(=O)O[C@@H]1C", 0],
  ["CC1(O)CC(c2nc(-c3ccc4ccc(-c5ccccc5)nc4c3)c3c(N)nccn23)C1 (stereo not given)", 0],
  ["CNC(=O)c1ccc(N2C(=S)N(c3cnc(C#N)c(C(F)(F)F)c3)C(=O)C23CCC3)cc1F", 0],
  ["CC(C)c1noc(N2CCC(COc3ccc(-c4ccc(S(C)(=O)=O)cc4)nc3)CC2)n1", 0],
  ["CN1CCN(Cc2ccc(NC(=O)Nc3ccc(Oc4cc(NC(=O)C5CC5)ncn4)cc3)cc2C(F)(F)F)CC1", 1],
  ["NC(=O)Nc1cc(-c2cccc(F)c2)sc1C(=O)N[C@H]1CCCNC1", 1],
  ["Cc1cn(-c2cc(NC(=O)c3ccc(C)c(Nc4nccc(-c5cccnc5)n4)c3)cc(C(F)(F)F)c2)cn1", 0],
  ["C=CC(=O)N1CCC[C@@H](n2nc(-c3ccc(Oc4ccccc4)cc3)c3c(N)ncnc32)C1", 0],
  ["CC(C)(O)CCc1ccc(OCc2cc(-c3cccc(OC(F)F)c3)c3ncccc3c2)cc1", 0],
  ["CCc1c2c(nc3ccc(O)cc13)-c1cc3c(c(=O)n1C2)COC(=O)[C@]3(O)CC", 1],
  ["Cn1cc(-c2ccncc2)c(-c2ccc(OCc3ccc4ccccc4n3)cc2)n1", 0],
  ["C=CC(=O)Nc1cccc(Oc2nc(Nc3ccc(N4CCN(C)CC4)cc3OC)ncc2Cl)c1", 0],
  ["CNC(=O)c1ccc(-c2cnc3ncc(Cc4ccc5ncccc5c4)n3n2)cc1F", 0],
  ["CCCCCN(CCC12CC3CC(CC(C3)C1)C2)C(=O)NCCCc1ccncc1", 0],
  ["O=C(Nc1nc2cccc(-c3ccc(CN4CCS(=O)(=O)CC4)cc3)n2n1)C1CC1", 0],
  ["COc1ccc(-c2cc3c(C)nc(N)nc3n(C3CCC(OCCO)CC3)c2=O)cn1 (stereo not given)", 1]
]}

----------
TEST_DETAILS: Quantitative High-Throughput drug screen in 47 multiple myeloma cell lines against the NCATS MIPE library collection: JIM3_ECACC cell viability assay (AID 1918963; note: nearly all actives have a fitted effect of over 35% in size; note: potency is the fitted concentration of half-maximal effect)
CONDITION_LABEL: JIM3 myeloma viability, CellTiter-Glo ATP, 48 h; series mostly up to 45.8 µM
Records with an inconclusive call do not appear. Activity calls are given as the source filed them. The call rests on the fitted dose curve; in most records, active means well fitted cell-killing curve with a large enough effect; inconclusive means small, poorly fitted or top-dose-only effect; inactive means no such curve, though single readings can be large or run the other way.
READOUT_TYPE: Potency

{"columns": ["COMPOUND", "RESULT"],
 "data": [
  ["N#Cc1c(O)c2c(-c3ccc(-c4ccccc4O)cc3)csc2[nH]c1=O", "inactive"],
  ["O=C(O)CCCc1c[nH]c2ccccc12", "inactive"],
  ["CC1=C(CO)C(=O)O[C@@H]([C@@H](C)[C@H]2CC[C@H]3[C@@H]4C[C@H]5O[C@]56[C@@H](O)C=CC(=O)[C@]6(C)[C@@H]4CC[C@]23C)C1", "209 nM (active)"],
  ["O=C(c1ccc(Nc2nccc(-c3cc4ccccc4s3)n2)cc1)N1CCC(N2CCCC2)CC1", "3720 nM (active)"],
  ["COCCn1c2c([n+](Cc3cnccn3)c1C)C(=O)c1ccccc1C2=O", "26.4 nM (active)"],
  ["CC1(C)OC2=C(C(=O)c3ccccc3C2=O)[C@H](NCc2ccccc2)[C@H]1O", "2090 nM (active)"],
  ["COc1cc(C(C)C)c2c(c1)S(=O)(=O)N(COc1cc(=O)n3cccc(OCCN4CCCCC4)c3n1)C2=O", "18700 nM (active)"],
  ["Nc1nccc(Oc2ccc(NC(=O)c3c[nH]cc(-c4ccc(F)cc4)c3=O)cc2F)c1Cl", "26400 nM (active)"],
  ["C=CC(=O)Nc1cccc(Oc2nc(Nc3ccc(N4CCN(C)CC4)cc3OC)ncc2Cl)c1", "118 nM (active)"],
  ["COc1ccc(OC)c(-c2nnc3ccc(-c4ccc(OC)c(O[C@@H]5CCOC5)c4)nn23)c1", "8330 nM (active)"],
  ["NC(=O)c1c(OCc2c(F)cc(Br)cc2F)nsc1NC(=O)NCCCCN1CCCC1", "26400 nM (active)"],
  ["c1cc(-c2cnn3cc(-c4ccc(OCCN5CCCCC5)cc4)cnc23)ccn1", "3720 nM (active)"],
  ["O=C(O)[C@H](Cc1c[nH]c2ccccc12)N1C(=O)c2ccccc2C1=O", "inactive"],
  ["CN1c2cc(O)c(N=NC(N)=O)cc2CC1S(=O)(=O)O (stereo unspecified)", "inactive"],
  ["COc1cc(=C2C=c3ccccc3=N2)[nH]c1=Cc1[nH]c(C)cc1C", "2350 nM (active)"],
  ["O=C(Nc1cc(C(F)(F)F)cc(C(F)(F)F)c1)c1cc(Cl)ccc1O", "662 nM (active)"],
  ["C=CC(=O)Nc1cc2c(Nc3ccc(F)c(Cl)c3)ncnc2cc1C#CC(C)(C)N1CCN(C)CC1", "1660 nM (active)"],
  ["Nc1ccc(S(=O)(=O)Nc2ncccn2)cc1", "inactive"],
  ["Clc1cccc(-c2nnnn2Cc2cccnc2)c1Cl", "inactive"],
  ["COc1cc(-c2nn(C3CCC(N4CCN(C(C)=O)CC4)CC3)c3ncnc(N)c23)ccc1NC(=O)c1cc2ccccc2n1C (stereo unspecified)", "2350 nM (active)"],
  ["COC(=O)C1=C(C)NC(C)=C(C(=O)OCCN2CCN(C(c3ccccc3)c3ccccc3)CC2)C1c1cccc([N+](=O)[O-])c1 (stereo unspecified)", "inactive"],
  ["Cc1ccc(C(=O)Nc2ccc(CN3CCN(C)CC3)c(C(F)(F)F)c2)cc1C#Cc1cnc2cccnn12", "1870 nM (active)"],
  ["O=C(CCCCCCC(=O)Nc1ccc([C@H]2O[C@@H](CSc3nc(-c4ccccc4)c(-c4ccccc4)o3)C[C@@H](c3ccc(CO)cc3)O2)cc1)NO", "23500 nM (active)"],
  ["COc1ccc2c(c1)CC[C@@H](CN(C)CC(=O)O)[C@H]2c1ccccc1", "1660 nM (active)"],
  ["O=C(c1cncc(Br)c1)N1CCC(N2CCCC2)CC1", "inactive"],
  ["O=C(C=Cc1cccc(S(=O)(=O)Nc2ccccc2)c1)NO", "5400 nM (active)"]
]}

----------
System: PA-1
TEST_DETAILS: Primary qHTS to identify gynecologic anti-cancer compounds using libraries of approved drugs and bioactive compounds (AID 1345084); note: nearly all actives have a fitted effect of over 55% in size
CONDITION_LABEL: Gynecologic cancer cell panel viability, ATPlite luminescence, 48 h; series mostly up to 57.5 µM
Results filed as inconclusive are left out. Active and inactive are the calls of the source. Calls come from the whole dose curve; as a rule, active = well fitted cell-killing curve with a large enough effect; inconclusive = small, poorly fitted or top-dose-only effect, or effect the other way; inactive = flat fitted curve, though single readings scatter.
Possible outcomes: Yes = active, No = inactive

{"columns": ["COMPOUND", "CLASS_ASSIGNMENT"],
 "data": [
  ["COc1cccc(Nc2c(C(N)=O)cnc3c(C)cc(S(=O)(=O)c4cccc(C(=O)N(C)C)c4)cc23)c1", "No"],
  ["Nc1nccc(Oc2ccc(NC(=O)c3c[nH]cc(-c4ccc(F)cc4)c3=O)cc2F)c1Cl", "No"],
  ["Cc1cc(C(=O)N2CCN(c3cccc(Cl)c3)CC2)n(-c2ccccc2)n1", "Yes"],
  ["CC(=O)Nc1nc(C)c(-c2ccc(Cl)c(S(=O)(=O)NCCO)c2)s1", "Yes"],
  ["O=C(c1cncc(Br)c1)N1CCC(N2CCCC2)CC1", "No"],
  ["CN1CCC(CNc2ccc3ncc(-c4cccc(OC(F)(F)F)c4)n3n2)CC1", "No"],
  ["CNC(=O)c1cc(Oc2ccc(NC(=O)Nc3cc(C(C)(C)C)nn3-c3ccc4ncccc4c3)c(F)c2)ccn1", "Yes"],
  ["Cc1cnc(Nc2ccc(F)cc2Cl)nc1-c1c[nH]c(C(=O)N[C@H](CO)c2cccc(Cl)c2)c1", "Yes"],
  ["C=CC(=O)Nc1cccc(Oc2nc(Nc3ccc(N4CCN(C)CC4)cc3)ncc2Cl)c1", "Yes"],
  ["CC[C@@]1(O)C(=O)OCc2c1cc1n(c2=O)Cc2cc3cc(O)ccc3nc2-1", "Yes"],
  ["Nc1cc(C(F)(F)F)c(-c2cc(N3CCOCC3)nc(N3CCOCC3)n2)cn1", "Yes"],
  ["COc1cccc2nc(-c3cccs3)nc(NN3C(=O)C=C(C)C3=O)c12", "Yes"],
  ["CN(C1CCc2c(c3ccccc3n2CC(=O)O)C1)S(=O)(=O)c1ccc(F)cc1 (stereo unspecified)", "No"],
  ["COc1cc2c(NC3CCN(C(C)C)CC3)nc(C3CCCCC3)nc2cc1OCCCN1CCCC1", "Yes"],
  ["CC(C)c1noc(N2CCC(COc3ccc(-c4ccc(S(C)(=O)=O)cc4)nc3)CC2)n1", "No"],
  ["CC(C)c1cc(-c2n[nH]c(=O)n2-c2ccc3c(ccn3C)c2)c(O)cc1O", "Yes"],
  ["C#Cc1cccc(Nc2ncnc3cc(OC)c(OCCCCCCC(=O)NO)cc23)c1", "Yes"],
  ["O=C(CCCCCCNC(=O)c1cnc(N(c2ccccc2)c2ccccc2)nc1)NO", "Yes"],
  ["Cc1cc(Nc2nc(N[C@@H](C)c3ccc(F)cc3)c(C#N)cc2F)n[nH]1", "Yes"],
  ["CNC(=O)c1ccccc1Nc1nc(Nc2ccc(N3CCOCC3)cc2OC)ncc1Cl", "Yes"],
  ["Clc1ccc2ncc(-c3cccc(NC4CNC4)n3)n2c1", "No"]
]}
